Entries and their pIC50 values follow.
# Tested system: JH2 domain of human Tyk2 (Homo sapiens)
# Construct: 10×His-tagged TYK2 JH2 domain (amino acid 575-876)
# Sequence (P29597 575-876): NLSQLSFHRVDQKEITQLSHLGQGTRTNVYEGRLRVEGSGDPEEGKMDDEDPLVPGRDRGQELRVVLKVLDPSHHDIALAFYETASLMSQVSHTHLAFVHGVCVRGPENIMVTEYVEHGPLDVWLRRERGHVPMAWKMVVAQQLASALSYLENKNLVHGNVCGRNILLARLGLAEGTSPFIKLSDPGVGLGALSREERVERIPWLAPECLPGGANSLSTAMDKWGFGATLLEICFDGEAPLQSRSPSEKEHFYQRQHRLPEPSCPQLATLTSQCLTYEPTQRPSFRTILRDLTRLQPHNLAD
# Assay notes: JH2 biochemical assay (TR-FRET probe displacement)
# Format: binding
# Settings: JH2 biochemical assay
pIC50: −log10 of the molar value. Where a name gives a salt, the structure may show the parent alone.

Illustrative cases are given below, each with its answer.
Compound | pIC50
CC(=O)Nc1cc2c(cn1)C1(CC1)CN2c1cc(C(C)C)nc(C(C)(F)F)n1 | ≥ 8.00
COC1(C)CN(c2nc(C)cc(N3CC4(CC4)c4cnc(NC(C)=O)cc43)n2)C1 | 7.00 to 8.00
CC(=O)Nc1cc2c(cn1)C1(CC1)CN2c1cncc(C(C)(F)F)n1 | ≥ 8.00
CC(=O)Nc1cc2c(cn1)C1(CC1)CN2c1cc(C)nc(C23COC(C)(C2)C3)n1 | 7.00 to 8.00
COC1(COc2cc(C)cc(N3CC4(CC4)c4cnc(NC(C)=O)cc43)n2)CCC1 | 6.00 to 7.00

Asked: Provide measured pIC50 on JH2 domain of human Tyk2 (Homo sapiens) for COCC(F)(F)c1cc(C)cc(N2CC3(CC3)c3cnc(NC(C)=O)cc32)n1 [Example 315, trifluoroacetate] please.
Given back: 7.00 to 8.00

Asked: Name the recorded pIC50 of `CSc1nc(C)cc(N2CC3(CC3)c3cnc(NC(C)=O)cc32)n1` , assay system JH2 domain of human Tyk2 (Homo sapiens).
Given back: ≥ 8.00

Asked: Param request: pIC50 | system JH2 domain of human Tyk2 (Homo sapiens) | item CC(=O)Nc1cc2c(cn1)C1(CC1)CN2c1cc(OC(C#N)C2CC2)nc(C(C)(F)F)n1 (centres unmarked) [Example 152, trifluoroacetate]
Given back: 7.00 to 8.00

Asked: Please respond with reported pIC50 (system JH2 domain of human Tyk2 (Homo sapiens)) for `CC(=O)Nc1cc2c(cn1)C1(CC1)CN2c1cc(C)cc(N2CC(C#N)(C(F)F)C2)n1` .
Given back: 7.00 to 8.00

Asked: # lookup: JH2 domain of human Tyk2 (Homo sapiens) pIC50, key = CC(=O)Nc1cc2c(cn1)C1(CC1)CN2c1cc(Oc2cncnc2)nc(C(C)(F)F)n1 [Example 142, trifluoroacetate]
Given back: 7.00 to 8.00

Asked: Under JH2 domain of human Tyk2 (Homo sapiens): report pIC50 of CC(=O)Nc1cc2c(cn1)C1(CC1)CN2c1cc(C)cc(OCC2CC2)n1 [Example 352, trifluoroacetate] .
Given back: 6.00 to 7.00

Asked: Under JH2 domain of human Tyk2 (Homo sapiens), report pIC50 for CC(=O)Nc1cc2c(cn1)C1(CC1)CN2c1cc(C)nc(OC2CC(F)(C#N)C2)n1 (centres unmarked)
Given back: 6.00 to 7.00

Asked: State pIC50 on JH2 domain of human Tyk2 (Homo sapiens). Entry: `COCCN(C)c1cc(N2CC3(CC3)c3cnc(NC(C)=O)cc32)nc(C(C)(F)F)n1`
Given back: ≥ 8.00
